# Test system: gephE
# Experiment Notes: µSPOT peptide microarray binding assay with recombinant gephE
# Test Settings: µSPOT peptide microarray, GlyRβ full positional scan, recombinant gephE; intensity normalised to wild-type sequence DLRSNDFSIVGSLPR (=1)
Quantity: gephE Binding Intensity [norm.] (norm.)
Answers are plain numbers, in norm..

{"Seq Text": "DLRSNDFSYVGSLPR [GlyRβ_Full_Positional_Scan_169, GlyR β 414-428 variant I422Y]", "Measured Target": "gephE", "gephE Binding Intensity [norm.], norm.": 0.69}

# per-item lookup of gephE Binding Intensity [norm.]; items listed below
1. DLRPNDFSIVGSLPR [GlyRβ_Full_Positional_Scan_065]
2. DLRYNDFSIVGSLPR [GlyRβ_Full_Positional_Scan_069]
3. DLRSNDSSIVGSLPR [GlyRβ_Full_Positional_Scan_135, GlyR β 414-428 variant F420S]

# output
1: 0.89; 2: 0.96; 3: 0.51

----------
# System: gephE
# Experiment Notes: µSPOT peptide microarray binding assay with recombinant gephE
# Test Settings: µSPOT full positional scan of GlyRβ 15-mer DLRSNDFSIVGSLPR; intensity normalised to wild-type sequence (= 1)
Assign label 1 to entries whose gephE Binding Intensity [norm.] meets or exceeds 0.6 norm.; assign label 0 to the rest.

Observe how each entry below is paired with its result.
{"Seq Text": "DLRSNDFSIVGPLPR [GlyRβ_Full_Positional_Scan_225]", "Category Label": "label 0"}
{"Seq Text": "DLRSNDFSIVGSLPP [GlyRβ_Full_Positional_Scan_285]", "Category Label": "label 1"}
{"Seq Text": "DLRSNDFSIVRSLPR [GlyRβ_Full_Positional_Scan_212, GlyR β 414-428 variant G424R]", "Category Label": "label 0"}

# input Assess whether reported gephE Binding Intensity [norm.] for DLRSNDFSIVGSLQR [GlyRβ_Full_Positional_Scan_280] sits at 0.6 norm. or higher.
# output label 0

# input Assess whether reported gephE Binding Intensity [norm.] for DLRSNDFSIVGSLDR [GlyRβ_Full_Positional_Scan_270] sits at 0.6 norm. or higher.
# output label 0

# input Assess whether reported gephE Binding Intensity [norm.] for DLRSNDFSIVGSLCR [GlyRβ_Full_Positional_Scan_277] sits at 0.6 norm. or higher.
# output label 1

# input Assess whether reported gephE Binding Intensity [norm.] for DLRSNDFSIVGSLPT [GlyRβ_Full_Positional_Scan_296] sits at 0.6 norm. or higher.
# output label 1

# input Assess whether reported gephE Binding Intensity [norm.] for DLRSNDFSIVGSIPR [GlyRβ_Full_Positional_Scan_243] sits at 0.6 norm. or higher.
# output label 1

----------
# System: native geph
# Experiment Notes: µSPOT peptide microarray binding assay with native geph from mouse brain lysate
# Test Settings: µSPOT full positional scan of GlyRβ 15-mer DLRSNDFSIVGSLPR; native geph; intensity normalised to wild-type sequence (= 1)
Quantity: Native geph Binding Intensity [norm.] (norm.)
One number for each entry, in norm..

{"Seq Text": "DLRSNDFSIVGSLVR [GlyRβ_Full_Positional_Scan_266]", "Measured Target": "native geph", "Native geph Binding Intensity [norm.], norm.": 0.45}
{"Seq Text": "DLRSNDFSIVGSCPR [GlyRβ_Full_Positional_Scan_257]", "Measured Target": "native geph", "Native geph Binding Intensity [norm.], norm.": 0.88}
{"Seq Text": "DLRSNDFSIVGSLHR [GlyRβ_Full_Positional_Scan_273]", "Measured Target": "native geph", "Native geph Binding Intensity [norm.], norm.": 0.55}

# per-item lookup of Native geph Binding Intensity [norm.]; items listed below
1. DLRSNDFSIVGSLTR [GlyRβ_Full_Positional_Scan_276]
2. DLRSNDFSIVGSLPL [GlyRβ_Full_Positional_Scan_284]
3. DLRSNDFSIVGSLFR [GlyRβ_Full_Positional_Scan_267]
4. DLRSNDFSIVGSYPR [GlyRβ_Full_Positional_Scan_249]
5. DLRSNDFSIVGSLPC [GlyRβ_Full_Positional_Scan_297]
6. DLRSNDFSIVGALPR [GlyRβ_Full_Positional_Scan_221]
7. DLRSNDFSIVGSLMR [GlyRβ_Full_Positional_Scan_278]

# output
1: 0.49; 2: 1.11; 3: 0.28; 4: 1.23; 5: 0.97; 6: 0.99; 7: 0.44

----------
# Tested on: FL-geph
# Experiment Notes: µSPOT peptide microarray binding assay with full-length geph
# Test Settings: µSPOT peptide microarray, GlyRβ full positional scan, intensity normalised to wild-type sequence DLRSNDFSIVGSLPR (=1)
Can you tell me Fl-geph Binding Intensity [norm.] for the items I'm about to list?
Give bare numbers, in norm..

{"Seq Text": "DLRSNDFSNVGSLPR [GlyRβ_Full_Positional_Scan_179, GlyR β 414-428 variant I422N]", "U": "norm.", "Fl-geph Binding Intensity [norm.]": 0.57}
{"Seq Text": "DLRSSDFSIVGSLPR [GlyRβ_Full_Positional_Scan_095]", "U": "norm.", "Fl-geph Binding Intensity [norm.]": 0.95}
{"Seq Text": "DLRSNDFSIAGSLPR [GlyRβ_Full_Positional_Scan_181, GlyR β 414-428 variant V423A]", "U": "norm.", "Fl-geph Binding Intensity [norm.]": 0.65}
{"Seq Text": "DLRSGDFSIVGSLPR [GlyRβ_Full_Positional_Scan_082]", "U": "norm.", "Fl-geph Binding Intensity [norm.]": 0.9}
{"Seq Text": "DLRVNDFSIVGSLPR [GlyRβ_Full_Positional_Scan_066]", "U": "norm.", "Fl-geph Binding Intensity [norm.]": 0.9}
{"Seq Text": "KLRSNDFSIVGSLPR [GlyRβ_Full_Positional_Scan_014]", "U": "norm.", "Fl-geph Binding Intensity [norm.]": 0.94}
{"Seq Text": "DLRSNDFSIVFSLPR [GlyRβ_Full_Positional_Scan_207, GlyR β 414-428 variant G424F]", "U": "norm.", "Fl-geph Binding Intensity [norm.]": 0.54}
{"Seq Text": "DLRSNDKSIVGSLPR [GlyRβ_Full_Positional_Scan_134, GlyR β 414-428 variant F420K]", "U": "norm.", "Fl-geph Binding Intensity [norm.]": 0.61}
{"Seq Text": "DLRSNDFSIQGSLPR [GlyRβ_Full_Positional_Scan_200, GlyR β 414-428 variant V423Q]", "U": "norm.", "Fl-geph Binding Intensity [norm.]": 1.03}
{"Seq Text": "DLRFNDFSIVGSLPR [GlyRβ_Full_Positional_Scan_067]", "U": "norm.", "Fl-geph Binding Intensity [norm.]": 0.92}

# per-item lookup of Fl-geph Binding Intensity [norm.]; items listed below
1. DLRSNDFNIVGSLPR [GlyRβ_Full_Positional_Scan_159, GlyR β 414-428 variant S421N]
2. DLRSNDFSIHGSLPR [GlyRβ_Full_Positional_Scan_193, GlyR β 414-428 variant V423H]

# output
[1.03, 0.46]

# per-item lookup of Fl-geph Binding Intensity [norm.]; items listed below
1. DLRQNDFSIVGSLPR [GlyRβ_Full_Positional_Scan_080]
2. DLRDNDFSIVGSLPR [GlyRβ_Full_Positional_Scan_070]

# output
0.98
1.09

# per-item lookup of Fl-geph Binding Intensity [norm.]; items listed below
1. DLRSNDFSIVESLPR [GlyRβ_Full_Positional_Scan_211, GlyR β 414-428 variant G424E]
2. DLRSNAFSIVGSLPR [GlyRβ_Full_Positional_Scan_101]
3. DLRSNDFHIVGSLPR [GlyRβ_Full_Positional_Scan_153, GlyR β 414-428 variant S421H]

# output
1. 0.18
2. 1.04
3. 0.95

----------
# Tested on: native geph
# Experiment Notes: µSPOT peptide microarray binding assay with native geph from mouse brain lysate
# Test Settings: µSPOT peptide microarray, GlyRβ full positional scan, native geph from mouse brain lysate; intensity normalised to wild-type sequence DLRSNDFSIVGSLPR (=1)
Assign true to entries whose Native geph Binding Intensity [norm.] meets or exceeds 0.7 norm.; assign false to the rest.

Observe how each entry below is paired with its result.
{"Seq Text": "QLRSNDFSIVGSLPR [GlyRβ_Full_Positional_Scan_020]", "Category Label": "true"}
{"Seq Text": "DLRSNDFSAVGSLPR [GlyRβ_Full_Positional_Scan_161, GlyR β 414-428 variant I422A]", "Category Label": "false"}

Please turn your attention to the following entry.
# input Assess whether reported Native geph Binding Intensity [norm.] for DLRSGDFSIVGSLPR [GlyRβ_Full_Positional_Scan_082] sits at 0.7 norm. or higher.
# output true

----------
Can you tell me pKi for the items I'm about to list?
# Measured Target: gephE (Rattus norvegicus, UniProt Q03555)
# Construct: gephE (residues 318-736) was generated
# Sequence (Q03555 350-768): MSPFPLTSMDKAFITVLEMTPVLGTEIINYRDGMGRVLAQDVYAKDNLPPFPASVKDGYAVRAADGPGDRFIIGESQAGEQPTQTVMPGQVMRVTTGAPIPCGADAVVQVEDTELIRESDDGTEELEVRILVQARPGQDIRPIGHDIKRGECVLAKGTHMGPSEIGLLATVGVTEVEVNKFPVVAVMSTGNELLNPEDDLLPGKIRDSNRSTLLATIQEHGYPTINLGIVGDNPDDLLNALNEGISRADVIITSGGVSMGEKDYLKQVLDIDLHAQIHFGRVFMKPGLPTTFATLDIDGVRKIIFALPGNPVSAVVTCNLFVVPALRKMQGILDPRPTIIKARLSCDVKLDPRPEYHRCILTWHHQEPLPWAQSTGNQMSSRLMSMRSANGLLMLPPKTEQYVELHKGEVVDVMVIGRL
# Experiment Notes: TRIC displacement 12-point dose response against gephE-NN1D-Alexa647 complex
Where a SMILES comes first, the peptide text is derived from it.
Numbers only, as −log10 of the molar value.

{"Molecule": "CC[C@H](C)[C@H](NC(=O)[C@@H](NC(=O)[C@H](Cc1ccccc1)NC(=O)[C@H](CC(=O)O)NC(=O)[C@H](CC(N)=O)NC(=O)[C@H](CO)NC(=O)[C@H](CCCNC(=N)N)NC(=O)[C@H](CC(C)C)NC(=O)[C@@H](N)CC(=O)O)[C@@H](C)O)C(=O)N[C@H](C(=O)NCC(=O)N[C@@H](CO)C(=O)N[C@@H](CC(C)C)C(=O)N1CCC[C@H]1C(=O)N[C@@H](CCCNC(=N)N)C(N)=O)C(C)C [GlyRβ_Full_Positional_Scan_156] (H-DLRSNDFTIVGSLPR-NH2)", "pKi": 4.78}

Below: the item to evaluate.
# input // lookup pKi for CC(C)C[C@H](NC(=O)[C@@H](N)CC(=O)O)C(=O)N[C@@H](CCCNC(=N)N)C(=O)N[C@@H](CO)C(=O)N[C@@H](CC(N)=O)C(=O)N[C@@H](CC(=O)O)C(=O)N[C@@H](Cc1ccccc1)C(=O)N[C@@H](CO)C(=O)N[C@H](C(=O)N[C@H](C(=O)NCC(=O)N[C@@H](CO)C(=O)N[C@@H](CC(C)C)C(=O)N1CCC[C@H]1C(=O)N[C@@H](CCCNC(=N)N)C(N)=O)C(C)C)C(C)C [GlyRβ_Full_Positional_Scan_166] (H-DLRSNDFSVVGSLPR-NH2)
# output 4.67
